Where do these numbers come from? They come from PubChem BioAssay AID206.

System: nude mice, HT29 intrarenal xenograft, tumor weight T/C
Assay: NCI In Vivo Anticancer Drug Screen. Data for tumor model HT29;CX-1 Human Adenocarcinoma (MER+) (intrarenal inoculation) in NU/NU Swiss (nude) mice
Details: endpoint: mean tumor weight change; dose: 100.0 mg/kg/injection; schedule: Q04DX004 (sc); vehicle: saline with Tween-80; higher = larger tumour
Experimental: The antitumor activity of compounds was measured in mice bearing transplantable tumors. Survival or tumor size were measured and the results are expressed as the measurement made in the treated group (T) divided by the measurement made in the vehicle treated control group (C). The tumor model used in this assay is HT29;CX-1 Human Adenocarcinoma (MER+) (intrarenal inoculation) in NU/NU Swiss (nude) mice
Results filed as inconclusive are left out.
endpoint_name: T/C

In: If you can, please state the reported T/C value of N#CC(=C1C=CC(=NO)C=C1)c1ccc(Cl)cc1 .
Out: 90 % of control

In: If you can, please state the reported T/C value of C[Si](C)(C)O/C=C1\CCCCC1=O .
Out: 92 % of control

In: If you can, please state the reported T/C value of Cc1ccc2c(c1)N=C(Nc1ccccc1)N=S2(C)=O (configuration not stated) .
Out: 67 % of control

In: If you can, please state the reported T/C value of O=C1[C@H]2CCC[C@H]2[C@H]2CCC[C@@H]12 .
Out: 67 % of control

###

system: nude mice, HT29 intrarenal xenograft, tumor weight T/C; assay: NCI In Vivo Anticancer Drug Screen. Data for tumor model HT29;CX-1 Human Adenocarcinoma (MER+) (intrarenal inoculation) in NU/NU Swiss (nude) mice; settings: endpoint: mean tumor weight change; dose: 300.0 mg/kg/injection; schedule: Q04DX004 (sc); vehicle: saline; higher = larger tumour
Records with an inconclusive call do not appear.
endpoint_name: T/C

These solved cases illustrate the format of a correct answer.
molecule=C[C@H](N)C(=O)N[C@@H]1[C@H]2C(=C(O)C[C@@H](O)[C@@H]2O)C(=O)O[C@@H]1C test_system="nude mice, HT29 intrarenal xenograft, tumor weight T/C" endpoint_name=T/C reported="107 % of control"
molecule="COC1C(OC(=O)/C=C/C=C/C=C/C=C/C(=O)O)CCC2(CO2)C1C1(C)OC1CC=C(C)C (stereo unspecified)" test_system="nude mice, HT29 intrarenal xenograft, tumor weight T/C" endpoint_name=T/C reported="119 % of control"
molecule=Cc1ccccc1CN1C2=NCCN2C(=O)C2=C1CCN(S(=O)(=O)c1ccc(Cl)c(S(N)(=O)=O)c1)C2 test_system="nude mice, HT29 intrarenal xenograft, tumor weight T/C" endpoint_name=T/C reported="168 % of control"
molecule=OCCOCC(F)(F)F test_system="nude mice, HT29 intrarenal xenograft, tumor weight T/C" endpoint_name=T/C reported="67 % of control"
molecule="C=CCOCC1CO1 (stereo unspecified)" test_system="nude mice, HT29 intrarenal xenograft, tumor weight T/C" endpoint_name=T/C reported="54 % of control"

In: Query T/C on nude mice, HT29 intrarenal xenograft, tumor weight T/C for Cn1cnc([N+](=O)[O-])c1SCC(=O)O
Out: 89 % of control

In: Query T/C on nude mice, HT29 intrarenal xenograft, tumor weight T/C for OCC1OC(n2cnc3c(Cl)ncnc32)C(O)C1O (stereo unspecified)
Out: 94 % of control

In: Query T/C on nude mice, HT29 intrarenal xenograft, tumor weight T/C for CCCCCCCCCCCCCCCCP(=O)(OCCOCCCCCC)OCCOCCCCCC
Out: 178 % of control

In: Query T/C on nude mice, HT29 intrarenal xenograft, tumor weight T/C for NC(CCC(=O)NC(CS)C(=O)NCC(=O)O)C(=O)O (stereo unspecified)
Out: 168 % of control

In: Query T/C on nude mice, HT29 intrarenal xenograft, tumor weight T/C for [Cl][Sn]([c]1ccccc1)[c]1ccccc1
Out: 63 % of control

In: Query T/C on nude mice, HT29 intrarenal xenograft, tumor weight T/C for CC1=NN(c2cccc(S(=O)(=O)O)c2)C(=O)C1N=Nc1cc(Cl)cc(S(=O)(=O)O)c1O.CC1=NN(c2cccc(S(=O)(=O)O)c2)C(=O)C1N=Nc1cc(Cl)cc(S(=O)(=O)O)c1O.[Cr] (stereo unspecified)
Out: 121 % of control

###

tested on: nude mice, HT29 intrarenal xenograft, tumor weight T/C; assay: NCI In Vivo Anticancer Drug Screen. Data for tumor model HT29;CX-1 Human Adenocarcinoma (MER+) (intrarenal inoculation) in NU/NU Swiss (nude) mice; conditions: endpoint: mean tumor weight change; dose: 50.0 mg/kg/injection; schedule: Q04DX004 (sc); vehicle: saline; higher = larger tumour
Results filed as inconclusive are left out.
Here, each record is paired with measured T/C data.

These solved cases illustrate the format of a correct answer.
compound=CCC(C(=O)O)C(=O)O.[NH-]CC1CCCC[N-]1.[Pt+2] reported="113 % of control"
compound="Cc1c(N)nc([C@H](CC(N)=O)NC[C@H](N)C(N)=O)nc1C(=O)N[C@H](C(=O)N[C@H](C)[C@@H](O)[C@H](C)C(=O)N[C@H](C(=O)NCCc1nc(-c2nc(C(=O)NCCC[S+](C)C)cs2)cs1)[C@@H](C)O)C(OC1OC(CO)C(O)C(O)C1OC1OC(CO)C(O)C(OC(N)=O)C1O)c1cnc[nH]1 (some centres undefined)" reported="113 % of control"
compound=CCN=C=NCCCN(C)C reported="78 % of control"
compound=Brc1c(NC2=NCCN2)ccc2nccnc12 reported="52 % of control"
compound="CCc1ncnc2cc(OCC3CO3)c(OC)cc12 (centres undefined)" reported="36 % of control"

In: If you can, please state the reported T/C value of c1cc(-c2cc3ccc(C4=NCCN4)cc3[nH]2)ccc1C1=NCCN1 .
Out: 154 % of control

In: If you can, please state the reported T/C value of CNC(=O)ON(C(C)=O)C(=O)NC .
Out: 34 % of control

In: If you can, please state the reported T/C value of OCCN1CCN(CC/C=C2/c3ccccc3Sc3ccc(Cl)cc32)CC1 .
Out: 87 % of control

In: If you can, please state the reported T/C value of NC1=NC(=O)N2CC12 (centres undefined) .
Out: 103 % of control

In: If you can, please state the reported T/C value of O=[N+]([O-])O.[Ga] .
Out: 99 % of control

In: If you can, please state the reported T/C value of OCC1OC(n2cnc3cncnc32)C(O)C1O (centres undefined) .
Out: 66 % of control

In: If you can, please state the reported T/C value of O=C(/C=C(\Cl)C(=O)NO)NO .
Out: 102 % of control

In: If you can, please state the reported T/C value of CC(=O)C1=C(O)C2(O)C(=O)c3c(c(C)c4ccc(C)c(O)c4c3O)CC2C(N)C1=O (centres undefined) .
Out: 173 % of control

In: If you can, please state the reported T/C value of ClCC[Se](Cl)(Cl)c1ccccc1 .
Out: 100 % of control

###

system: nude mice, HT29 intrarenal xenograft, tumor weight T/C; experiment: NCI In Vivo Anticancer Drug Screen. Data for tumor model HT29;CX-1 Human Adenocarcinoma (MER+) (intrarenal inoculation) in NU/NU Swiss (nude) mice; details: endpoint: mean tumor weight change; dose: 4.0 mg/kg/injection; schedule: Q04DX004 (sc); vehicle: saline; higher = larger tumour
Results filed as inconclusive are left out.
endpoint_name: T/C

These solved cases illustrate the format of a correct answer.
compound="O=C1C(NCC(O)CO)=C(N2CC2)C(=O)C(NCC(O)CO)=C1N1CC1 (stereo not given)" reported="86 % of control"
compound="C/C=C(\\C)c1cc(=O)c2c(C)cc3c(c2o1)C(=O)c1c(O)c(C2CC(C)(N(C)C)C(O)C(C)O2)cc(C2CC(N(C)C)C(O)C(C)O2)c1C3=O (stereo not given)" reported="82 % of control"
compound="Cc1c(N)nc([C@H](CC(N)=O)NC[C@H](N)C(N)=O)nc1C(=O)N[C@H](C(=O)N[C@H](C)[C@@H](O)CC(=O)N[C@H](C(=O)NC(O[C@@H]1O[C@@H](C)[C@@H](N)[C@@H](O)[C@H]1O)C(O)c1nc(-c2nc(C(=O)NCCCCN)cs2)cs1)[C@@H](C)O)[C@@H](O[C@@H]1O[C@@H](CO)[C@@H](O)[C@H](O)[C@@H]1O[C@H]1O[C@H](CO)[C@@H](O)[C@H](OC(N)=O)[C@@H]1O)c1c[nH]cn1 (stereo not given in full)" reported="104 % of control"

In: If you can, please state the reported T/C value of CCC1CC2CN(CCc3c([nH]c4ccccc34)C(C(=O)OC)(c3cc4c(cc3OC)N(C)C3C(O)(C(=O)OC)C(OC(C)=O)C5(CC)C=CCN6CCC43C65)C2)C1 (stereo not given) .
Out: 58 % of control

In: If you can, please state the reported T/C value of COC1=C2C[C@@H](C)C[C@@H](OC)[C@@H](O)[C@H](C)/C=C(\C)[C@@H](OC(N)=O)[C@H](OC)/C=C\C=C(/C)C(=O)NC(=CC1=O)C2=O .
Out: 113 % of control
